testedOn: recombinant human NK3 receptor (Homo sapiens, UniProt P29371)
testMethodNotes: [3H]SR142801 competition binding assay
conditionDetails: membrane from HEK293 cells transiently expressing recombinant human NK3 receptor; radioligand [3H]SR142801; 75 min at RT
The threshold is 20 nM. Values of Ki beneath it are tagged satisfied; values meeting or exceeding it are tagged not satisfied.

Before answering, review these 2 worked examples.
COc1cc2nc(N3CCC(CC4CCC4)(C(=O)N(C)Cc4ccccc4)CC3)nc(O)c2cc1OC = satisfied
COc1cc2nc(N3CCC(Cc4ccccc4)(C(=O)NCc4ccccc4)CC3)nc(N)c2cc1OC = satisfied

Prompt: Problem: For the compound `COc1cc2nc(N3CCC(Cc4ccccc4)(C(=O)NCc4ccc(N(C)C)cc4)CC3)nc(N)c2cc1OC` , is Ki under 20 nM?
Response: satisfied

Prompt: Problem: For the compound `COc1cc2nc(N3CCC(Cc4ccccc4)(C(=O)NCc4ccccc4)CC3)nc(NC3CC3)c2cc1OC` , is Ki under 20 nM?
Response: not satisfied

Prompt: Problem: For the compound `COc1cc2nc(N3CCC(CC4CCC4)(C(=O)NCc4ccccc4)CC3)nc(O)c2cc1OC` , is Ki under 20 nM?
Response: satisfied

----------
testedOn: recombinant human NK3 receptor (Homo sapiens, UniProt P29371)
testMethodNotes: [3H]SR142801 competition binding assay
conditionDetails: membrane from HEK293 cells transiently expressing recombinant human NK3 receptor; radioligand [3H]SR142801; 75 min at RT
In this section, each of the molecules is paired with its reported pKi.
Just the number, please; pKi means minus log10 of the concentration in mol/L.

Record excerpt, results attached:
O=C(NCc1ccccc1)C1(Cc2ccccc2)CCN(c2nc(O)c3cc(F)c(Cl)cc3n2)CC1 = 7.46
COc1cc2nc(N3CCC(Cc4ccccc4)(C(=O)N(C)C4Cc5ccccc5C4)CC3)nc(O)c2cc1OC = 7.20
COc1cc2nc(N3CCC(Cc4ccccc4)(C(=O)NCc4ccccc4)CC3)nc(N(C)C)c2cc1OC = 7.14
COc1cc2nc(N3CCC(Cc4ccccc4)(C(=O)NC4CCc5ccccc5C4)CC3)nc(O)c2cc1OC (centres unmarked) = 8.42

Query molecule follows.
Prompt: Fill in the blank: the reported pKi of `COc1cc2nc(N3CCC(CC4CC4)(C(=O)N(C)Cc4ccccc4)CC3)nc(O)c2cc1OC` is ____.
Response: 7.32

----------
testedOn: recombinant human NK3 receptor (Homo sapiens, UniProt P29371)
testMethodNotes: [3H]SR142801 competition binding assay
conditionDetails: membrane from HEK293 cells transiently expressing recombinant human NK3 receptor; radioligand [3H]SR142801; 75 min at RT
readoutName: log10 Ki (log10 of the value in µM)
Short version: log10 scale, Ki, µM.

Record excerpt, results attached:
COc1cc2nc(N3CCC(Cc4ccccc4)(C(=O)NC(C)c4ccc(Cl)cc4)CC3)nc(N)c2cc1OC (stereo not drawn) [Example 25] = -1.02
COc1cc2nc(N3CCC(Cc4ccccc4)(C(=O)NC4Cc5ccccc5C4O)CC3)nc(N)c2cc1OC (stereo not drawn) [Example 38] = -2.12
COc1cc2nc(N3CCC(Cc4ccccc4)(C(=O)NC(CO)c4ccccc4)CC3)nc(N)c2cc1OC (stereo not drawn) [Example 41] = -1.31
COc1cc2c(O)nc(N3CCC(Cc4ccccc4)(C(=O)NCc4ccccc4)CC3)nc2cc1OC(C)C [Example 92] = -1.67
COc1cc2nc(N3CCC(Cc4ccccc4)(C(=O)NC4CCCC4)CC3)nc(O)c2cc1OC [Example 53] = -1.60

Query compound follows.
Prompt: Fill in the blank: the reported log10 Ki of COc1cc2nc(N3CCC(Cc4ccc(F)cc4)(C(=O)NCc4ccccc4)CC3)nc(N)c2cc1OC [Example 4] is ____.
Response: -1.43

----------
testedOn: recombinant human NK3 receptor (Homo sapiens, UniProt P29371)
Sequence (P29371 1-465): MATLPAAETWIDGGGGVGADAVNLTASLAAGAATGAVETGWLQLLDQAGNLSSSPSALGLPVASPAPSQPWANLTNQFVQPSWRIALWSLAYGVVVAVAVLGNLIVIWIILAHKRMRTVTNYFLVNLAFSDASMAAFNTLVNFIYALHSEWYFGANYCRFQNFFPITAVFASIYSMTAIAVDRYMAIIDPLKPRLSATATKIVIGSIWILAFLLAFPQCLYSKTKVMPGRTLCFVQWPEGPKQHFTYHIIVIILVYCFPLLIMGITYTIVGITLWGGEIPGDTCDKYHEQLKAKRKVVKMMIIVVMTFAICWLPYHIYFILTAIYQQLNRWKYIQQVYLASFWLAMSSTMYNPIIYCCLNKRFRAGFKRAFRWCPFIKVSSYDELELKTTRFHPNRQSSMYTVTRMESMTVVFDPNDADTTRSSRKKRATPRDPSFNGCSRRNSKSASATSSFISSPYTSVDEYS
testMethodNotes: [3H]SR142801 competition binding assay
conditionDetails: membrane from HEK293 cells transiently expressing recombinant human NK3 receptor; radioligand [3H]SR142801; 75 min at RT
In this section, each of the compounds is paired with its reported pKi.
Just the number, please; pKi means minus log10 of the concentration in mol/L.

Record excerpt, results attached:
CC(C)Oc1ccc2nc(N3CCC(Cc4ccccc4)(C(=O)NCc4ccccc4)CC3)nc(O)c2c1 [Example 83] = 7.01
COc1cc2nc(N3CCC(CC4CCC4)(C(=O)NC4CCCC4)CC3)nc(O)c2cc1OC [Example 78] = 7.18
CC[C@@H](NC(=O)C1(Cc2ccccc2)CCN(c2nc(N)c3cc(OC)c(OC)cc3n2)CC1)c1ccccc1 [Example 51] = 7.78

Query compound follows.
Prompt: Form field: pKi recorded for COc1cc2nc(N3CCC(Cc4ccccc4)(C(=O)N(C)Cc4ccccc4)CC3)nc(O)c2cc1OC [Example 54] with recombinant human NK3 receptor (Homo sapiens, UniProt P29371) (enter value)
Response: 8.32

----------
testedOn: recombinant human NK3 receptor (Homo sapiens, UniProt P29371)
Sequence (P29371 1-465): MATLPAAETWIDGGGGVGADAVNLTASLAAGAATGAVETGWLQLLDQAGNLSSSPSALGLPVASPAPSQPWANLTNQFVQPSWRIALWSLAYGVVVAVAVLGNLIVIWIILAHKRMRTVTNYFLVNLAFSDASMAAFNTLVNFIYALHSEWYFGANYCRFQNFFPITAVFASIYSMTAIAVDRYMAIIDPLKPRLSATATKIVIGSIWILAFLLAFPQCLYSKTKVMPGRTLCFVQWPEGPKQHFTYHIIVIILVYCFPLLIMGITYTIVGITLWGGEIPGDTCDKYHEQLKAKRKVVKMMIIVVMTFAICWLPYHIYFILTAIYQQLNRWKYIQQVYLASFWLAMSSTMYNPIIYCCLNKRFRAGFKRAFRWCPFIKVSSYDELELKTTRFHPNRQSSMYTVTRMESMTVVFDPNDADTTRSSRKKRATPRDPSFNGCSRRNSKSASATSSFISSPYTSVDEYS
testMethodNotes: [3H]SR142801 competition binding assay
conditionDetails: membrane from HEK293 cells transiently expressing recombinant human NK3 receptor; radioligand [3H]SR142801; 75 min at RT
In this section, each of the compounds is paired with its reported pKi.
Just the number, please; pKi means minus log10 of the concentration in mol/L.

CCOc1cc2nc(N3CCC(Cc4ccccc4)(C(=O)NCc4ccccc4)CC3)nc(O)c2cc1OC(F)F [Example 94] = 8.08
O=C(NCc1ccccc1)C1(Cc2ccccc2)CCN(c2nc(O)c3ccc(OC(F)(F)F)cc3n2)CC1 [Example 99] = 8.31
COc1cc2nc(N3CCC(Cc4ccccc4)(C(=O)NCc4ccccc4)CC3)nc(O)c2cc1C [Example 90] = 7.88

Prompt: Form field: pKi recorded for O=C(NCc1ccccc1)C1(Cc2ccccc2)CCN(c2nc(O)c3ccc(C(F)(F)F)cc3n2)CC1 [Example 98] with recombinant human NK3 receptor (Homo sapiens, UniProt P29371) (enter value)
Response: 8.21

----------
testedOn: recombinant human NK3 receptor (Homo sapiens, UniProt P29371)
testMethodNotes: [3H]SR142801 competition binding assay
conditionDetails: membrane from HEK293 cells transiently expressing recombinant human NK3 receptor; radioligand [3H]SR142801; 75 min at RT
Procedure: [^3H]SR142801 Competition Binding Assay hNK3 receptor binding experiment were performed using [^3H]SR142801 (Catalog No. TRK1035, specific activity: 74.0 Ci/mmol, Amersham, GE Healthcare UK limited, Buckinghamshire, UK) and membrane isolated from HEK293 cells transiently expressing recombinant human NK3 receptor. […] Nonspecific binding was measured in the presence of 10 μM SB222200 for both radioligands. […]
The threshold is 40 nM. Values of Ki beneath it are tagged true; values meeting or exceeding it are tagged false.

Before answering, review these 8 worked examples.
COc1cc2nc(N3CCC(Cc4ccccc4)(C(=O)NC4CCCc5ccccc54)CC3)nc(N)c2cc1OC (centres unmarked) = false
COc1cc2nc(N3CCC(Cc4ccccc4)(C(=O)NCc4cccnc4)CC3)nc(O)c2cc1OC = false
COc1ccc2c(O)nc(N3CCC(Cc4ccccc4)(C(=O)NCc4ccccc4)CC3)nc2c1 = true
COc1cc2nc(N3CCC(Cc4ccccc4)(C(=O)N[C@H]4c5ccccc5C[C@@H]4O)CC3)nc(N)c2cc1OC = true
O=C(NCc1ccccc1)C1(Cc2ccccc2)CCN(c2nc(O)c3ccc(OC(F)F)cc3n2)CC1 = true
COc1cc2nc(N3CCC(Cc4ccccc4)(C(=O)N[C@H](C)c4ccccc4)CC3)nc(N)c2cc1OC = true
COc1cc2nc(N3CCC(Cc4ccccc4)(C(=O)NCc4ccccc4)CC3)nc(O)c2cc1Cl = true
COc1cc2nc(N3CCC(Cc4ccccc4)(C(=O)NC4CCc5ccccc5C4)CC3)nc(N)c2cc1OC (centres unmarked) = true

Prompt: Problem: For the compound `COc1cc2nc(N3CCC(Cc4ccccc4)(C(=O)NCc4ccc(OC(F)F)cc4)CC3)nc(N)c2cc1OC` , is Ki under 40 nM?
Response: false

Prompt: Problem: For the compound `COc1cc2nc(N3CCC(Cc4ccccc4)(C(=O)NCc4cccnc4)CC3)nc(N)c2cc1OC` , is Ki under 40 nM?
Response: false

Prompt: Problem: For the compound `COc1cc2nc(N3CCC(Cc4ccccc4)(C(=O)NCc4ccco4)CC3)nc(N)c2cc1OC` , is Ki under 40 nM?
Response: false

Prompt: Problem: For the compound `COc1cc2nc(N3CCC(Cc4ccccc4)(C(=O)NC4Cc5ccccc5C4)CC3)nc(O)c2cc1OC` , is Ki under 40 nM?
Response: true

Prompt: Problem: For the compound `CC(C)Oc1ccc2c(O)nc(N3CCC(Cc4ccccc4)(C(=O)NCc4ccccc4)CC3)nc2c1` , is Ki under 40 nM?
Response: true

Prompt: Problem: For the compound `COc1cc2nc(N3CCC(Cc4ccccc4)(C(=O)NC4Cc5ccccc5C4)CC3)nc(N)c2cc1OC` , is Ki under 40 nM?
Response: true
